# measurement_target: T1, XcZur (Xanthomonas campestris pv. campestris …, UniProt Q4UWS5 1-172)
# T1 sequence: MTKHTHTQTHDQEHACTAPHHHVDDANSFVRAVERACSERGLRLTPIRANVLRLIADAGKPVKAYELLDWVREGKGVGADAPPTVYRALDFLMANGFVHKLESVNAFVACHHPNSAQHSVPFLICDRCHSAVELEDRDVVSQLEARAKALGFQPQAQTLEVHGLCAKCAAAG
# experiment_summary: BLI
Reported Kd is given for each of the following binders.

Please review the entries below; each comes with its answer.
P2472-Biotin (dsDNA) DNA 1: AAGTGTTATAAAGTAACACTAGTCGCG DNA 2: CGCGACTAGTGTTACTTTATAACACTT ... ~38 nM
P3788-Biotin (dsDNA) DNA 1: ATTGATACGTTATCACATTGCGCCCCGCGCT DNA 2: AGCGCGGGGCGCAATGTGATAACGTATCAAT ... ~63 nM

What value of Kd has been reported for the following binder? P0267-Biotin (dsDNA) DNA 1: GGCGAGTTGTTATACAGTAACATTTCTAG DNA 2: CTAGAAATGTTACTGTATAACAACTCGCC
~22 nM

Recorded values, source paper PMC8216289.
